- tested.system: HaloTag-ING2 PHD (mouse Ing2 200-280)
- assay.procedure: peptide microarray binding signal (635 nm), min-max normalized on array (fraction of array maximum); higher = stronger binding
- recorded.conditions: peptide region: Unmod H3 variant; binder concentration: 100 nM
reported.endpoint: peptide microarray binding signal
Write the number on its own, no unit after it.

ARTKQTARKSTGG [Unmod H3 variant A R T K Q T A R K S T G G] = 0.015
ATGGVKKPHRYRP [Unmod H3 variant A T G G V K K P H R Y R P] = 0.0186
VGLFEDTNLCAIH [Unmod H3 variant V G L F E D T N L C A I H] = 0.00241
AIHAKRVTIMPKD [Unmod H3 variant A I H A K R V T I M P K D] = 0.0196
RKSAPATGGVKKP [Unmod H3 variant R K S A P A T G G V K K P] = 0.021
ATKAARKSAPSTG [Unmod H3 variant A T K A A R K S A P S T G] = 0.00943
PFQRLVREIAQDF [Unmod H3 variant P F Q R L V R E I A Q D F] = 0.0259

Now consider a different binder.
In: Endpoint output: peptide microarray binding signal of ATKAARKSAPATG [Unmod H3 variant A T K A A R K S A P A T G] . Value?
Out: 0.015
